Value source: the supplement of paper PMC6555819

System: PXR:RXRa (NR concentration 270 nM, RXRa partner concentration 90 nM)
procedure text: PBM binding z-score (relative to random genomic background probes); higher = stronger binding; sequences stand for … in GC…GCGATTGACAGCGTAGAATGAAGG
Please respond with reported PBM binding z-score for every item in the list.
Numbers only.

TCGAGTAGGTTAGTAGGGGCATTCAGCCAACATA ... 0.244
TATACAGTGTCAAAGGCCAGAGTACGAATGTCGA ... 0.552
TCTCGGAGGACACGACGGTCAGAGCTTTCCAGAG ... -0.328

Could I get PBM binding z-score for every one of these entries?
1. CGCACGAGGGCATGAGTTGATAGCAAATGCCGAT
2. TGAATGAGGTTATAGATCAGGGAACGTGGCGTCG
3. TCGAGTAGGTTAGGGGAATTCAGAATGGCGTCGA
4. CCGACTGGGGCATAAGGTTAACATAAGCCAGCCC

Ans:
1. 0.438
2. 0.894
3. -0.0984
4. 0.636
